Provenance of the data: paper PMC9471048

Biological target: human α2C‐adrenoceptor (Homo sapiens)
Sequence (P18825 whole entry): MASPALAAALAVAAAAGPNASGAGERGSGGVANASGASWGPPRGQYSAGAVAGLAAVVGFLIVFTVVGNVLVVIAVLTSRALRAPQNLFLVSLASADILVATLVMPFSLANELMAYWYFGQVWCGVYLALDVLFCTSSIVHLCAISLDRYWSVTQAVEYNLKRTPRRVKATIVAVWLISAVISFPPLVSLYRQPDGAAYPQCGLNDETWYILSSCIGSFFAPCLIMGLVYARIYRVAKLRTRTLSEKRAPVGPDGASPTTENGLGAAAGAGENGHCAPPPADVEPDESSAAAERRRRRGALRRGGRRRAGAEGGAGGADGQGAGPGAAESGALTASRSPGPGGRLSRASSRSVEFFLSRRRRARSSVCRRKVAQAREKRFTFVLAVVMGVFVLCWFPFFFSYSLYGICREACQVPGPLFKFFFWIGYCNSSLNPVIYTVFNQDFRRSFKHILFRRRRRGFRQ
endpoint.label: % inhibition, CRE‐SPAP (with forskolin) (%)
Give bare numbers, in %.

Before answering, review these 5 worked examples.
molecule: Cc1cc(C(C)(C)C)cc(C)c1CC1=NCCN1
% inhibition, CRE‐SPAP (with forskolin), %: 57.2

molecule: Nc1cc(Cl)c(N=C2NCCN2)c(Cl)c1
% inhibition, CRE‐SPAP (with forskolin), %: 82.3

molecule: Cc1cccc(C(C)c2cnc[nH]2)c1C (stereo not drawn)
% inhibition, CRE‐SPAP (with forskolin), %: 86.4

molecule: Cc1cccc(C)c1N=C1NCCCS1
% inhibition, CRE‐SPAP (with forskolin), %: 81.8

molecule: CCC1(c2cnc[nH]2)Cc2ccccc2C1
% inhibition, CRE‐SPAP (with forskolin), %: 15.8

State recorded % inhibition, CRE‐SPAP (with forskolin) for all listed molecules.
1. CC(C)NCC(O)c1ccc(O)c(O)c1 (stereo not drawn)
2. C=CCc1ccccc1OC(C)C1=NCCN1 (stereo not drawn)
3. C=CCN1CCc2nc(N)sc2CC1

1. 95.0
2. 66.8
3. 86.8

Hey, quick one: what's % inhibition, CRE‐SPAP (with forskolin) for each of these?
1. CC(N)C(O)c1ccc(O)c(O)c1 (stereo not drawn) [α‐methylnorepinephrine]
2. Cc1cccc([C@H](C)c2cnc[nH]2)c1C
3. CNCC(O)c1ccc(O)cc1 (stereo not drawn) [Synephrine]

1. 85.2
2. 73.4
3. 88.1

Which measured % inhibition, CRE‐SPAP (with forskolin) value corresponds to CNC[C@H](O)c1cccc(O)c1 ?
77.5
